study system: T1, Recombinant human Fc-tagged extracellular domain of LILRB2 (human, UniProt Q8N423 22-460)
T1 construct: extracellular domain; Bought from R&D Systems; also called LILRB2-Fc; not shown: Fc tag
T1 sequence (Q8N423 22-460): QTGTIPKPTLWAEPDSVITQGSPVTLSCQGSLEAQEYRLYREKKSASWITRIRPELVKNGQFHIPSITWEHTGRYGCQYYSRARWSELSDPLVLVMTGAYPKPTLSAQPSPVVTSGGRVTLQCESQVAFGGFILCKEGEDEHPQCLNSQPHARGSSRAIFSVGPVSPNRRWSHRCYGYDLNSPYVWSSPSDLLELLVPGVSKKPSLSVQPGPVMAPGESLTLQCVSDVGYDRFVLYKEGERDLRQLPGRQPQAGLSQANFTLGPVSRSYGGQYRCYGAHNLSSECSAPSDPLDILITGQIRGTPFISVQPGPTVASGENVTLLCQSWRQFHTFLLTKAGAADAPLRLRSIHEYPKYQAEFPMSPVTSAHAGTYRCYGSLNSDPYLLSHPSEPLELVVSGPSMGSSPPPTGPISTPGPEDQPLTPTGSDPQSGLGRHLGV
test: SPR, Biacore X100; LILRB2-Fc amine-coupled to CM5 chip, antibody injected at 3.7-300 nM
value kind: -log(Kd)
One number for each entry.

Answered cases to consult:
1C8 (antibody, V domains shown, Entries are printed with leader peptide and part of the mouse constant region; also called LILRB2 antibody 1C8) VH: EVKLVESGGGLVQPGGSLKLSCAASGFTFSDYYMYWVRQTPEKRLEWVAYISNGGGNTYYPDTVKGRFTISRDNAKNTLYLQMSRLKSEDTAMYYCARQLEDWYFDVWGTGTTVTVSS VL: DIVMTQSHKFMSTSVGDRVSITCKASQDVSTAVAWSQQKPGQSPKLLVYWASARHTGVPDRFTGSGSGADYTLTISSVQAEDLALYYCQQHFSTPLTFGAGTKLELKR = 7.64
8D2 (antibody, V domains shown, Entries are printed with leader peptide and part of the mouse constant region; also called LILRB2 antibody 8D2) VH: QIQLVQSGPELKKPGETVKISCKASGYTFTTYGMSWVKQAPGKGLKWMGWINTYSGAPAYVDDFKGRFAFSLETSASTAYLQINNLKNEDTATYFCARHFYSGSSYWYFDVWGTGTTVTVSS VL: DIQMTQSPASLSVSVGETVTITCRASENIYSNLAWYQQKQGKSPQLLVYAATNLADGVPSRFSGSGSGTQYSLKINSLQSEDFGSYYCQHFWGTPRTFGGGTKLEIKR = 8.43

For every record below, what is its -log(Kd)?
1. 6B3 (antibody, V domains shown, Entries are printed with leader peptide and part of the mouse constant region (heavy entry ends within CH1); also called LILRB2 antibody 6B3) VH: EVQLQESGPELLKPGASMKISCKASGYTFTDDYMNWVKQSHGKSLEWIGDINPNNGGTSYNQKFKGKATLTVDKSSSTAYMELRSLTSEDSAVYYCARGSPWFAYWGQGTLVTVSA VL: DIQMTQTTSSLSASLGDRVTINCRASQDIRNYLSWYQQKPDGTVKLLIYYTSRLHSGVPSRFSGSGSGRDYSLTISNLEQEDIATYFCQQSNTLPWTFGGGTKLEITR
2. 3B3 (antibody, V domains shown, Entries are printed with leader peptide and part of the mouse constant region; also called LILRB2 antibody 3B3) VH: QVQLQQPGAELVKPGASVKMSCKASDYTFTSYWITWVKKRPGQGLEWIGDIYPGSDTTNYNEKFKNKATLTVDTSSSTAHMQLSSLTSEDSAVYYCTRPLYQGISPWFAYWGQGTLVTVSA VL: NIVMTQSPKSMSMSVGERVTLSCKASENVGTYVSWYQQKPEQSPKLLIYGASNRYTGVPDRFTGSGSATDFTLTISSVQAEDLADYHCGQSYSYPFTFGSGTKLEIKR
3. 10D4 (antibody, V domains shown, Entries are printed with leader peptide and part of the mouse constant region; also called LILRB2 antibody 10D4) VH: QVQLQQSDAELVKPGASVKISCKVSGYTFSDHTFHWMKQRPEQGLEWIGYFYPRDGRSKYNEKFRDKATLTADKSSSTAYMQLNSLTSEDSAVYFCTCDGFDYWGQGTTLTVSS VL: DIKMTQSPSSMHASLGERVTITCKASQDINSYLSWFQQKPGKSPKTLIYHADRLVDGVPSRFSGSGSGQDYSLTISSLEYEDMGIYYCLQYDEFPYTFGGGTKLEIKR
4. 10F5 (antibody, V domains shown, Entries are printed with leader peptide and part of the mouse constant region; also called LILRB2 antibody 10F5) VH: EVQLVESGGDLVKPGGSLKLSCAASGFTFSSYDMSWVRQTPDKRLEWVATISSGASYTYYPDSVKGRFTISRDNAKNTLYLQMSSLKSEDTAIYYCARWDSKYLRWYFDVWGTGTTVTVSS VL: DIVLTQSPASLAVSLGQRATISCRASESVDNNGISFMHWYQQKPGQSPKLLISRASNLESGIPARFSGSGSRTDFTLTINPVETDDVATYYCQQSNEDPFTFGGGTKLEIKR
5. 10A8 (antibody, V domains shown, Entries are printed with leader peptide and part of the mouse constant region; also called LILRB2 antibody 10A8) VH: EVQLVESGGDFVKPGGSLKLSCAASGFTFSSYDMSWVRQTPDKRLEWVATIIRGDSYTYYLDSVKGRFTISRDNAKNTLYLQMSSLKSEDTAMYYCARPSYGNSFDYWGQGTTLTVSS VL: DIVMTQSHKFMSTSIGDRVSITCKASQDVNNAVAWYQQKPGQSPKLLIYAASYRYTGVPDRFTGSGSGTDFTFTISSVQAEDLAVYHCQQHYGIPWTFGGGTKLEIKR

RESULT:
1. 9.02
2. 8.01
3. 7.82
4. 7.95
5. 8.77
